Source: ChEMBL document CHEMBL5523747

Test: Half life in CD-1 mouse at 1 mg/kg, po and 0.5 mg/kg, iv
Format: ADME, organism-based
Conditions: in vivo

# Compound, Unit tag, half-life
records = [
    ("N#Cc1ccc(N2CCC(c3ccc(OCCCCN4CCN(c5ccc6c(c5)CN(C5CCC(=O)NC5=O)C6=O)CC4)cc3)CC2)c(F)c1C(F)(F)F (centres undefined)", "h", 7),
    ("COc1cc(N2CCN(CC3CCN(c4ccc(C5CCN(c6ccc(C#N)c(C(F)(F)F)c6)CC5)cc4)CC3)CC2)cc2c1C(=O)N(C1CCC(=O)NC1=O)C2 (centres undefined)", "h", 6.8),
    ("N#Cc1ccc(N2CCC(c3ccc(N4CCC(CN5CCN(c6ccc7c(c6)CN(C6CCC(=O)NC6=O)C7=O)CC5)CC4)cc3)CC2)c(F)c1C(F)(F)F (centres undefined)", "h", 19.5),
    ("COc1cc(N2CCN(CC3CCN(c4ccc(C5CCN(c6ccc(C#N)c(C(F)(F)F)c6F)CC5)c(F)c4)CC3)CC2)cc2c1C(=O)N(C1CCC(=O)NC1=O)C2 (centres undefined)", "h", 17),
    ("COc1cc(N2CCN(CC3CCN(c4cc(F)c(C5CCN(c6ccc(C#N)c(C(F)(F)F)c6F)CC5)c(F)c4)CC3)CC2)cc2c1C(=O)N(C1CCC(=O)NC1=O)C2 (centres undefined)", "h", 41),
    ("N#Cc1ccc(N2CCC(c3ccc(OCCCCN4CCN(c5ccc6c(c5)CN(C5CCC(=O)NC5=O)C6=O)CC4)cc3)CC2)cc1C(F)(F)F (centres undefined)", "h", 5),
    ("N#Cc1ccc(N2CCC(c3ccc(N4CCC(CN5CCN(c6ccc7c(c6)CN(C6CCC(=O)NC6=O)C7=O)CC5)CC4)cc3)CC2)cc1C(F)(F)F (centres undefined)", "h", 19),
    ("N#Cc1ccc(N2CCC(c3ccc(N4CCC(CN5CCN(c6ccc7c(c6)C(=O)N(C6CCC(=O)NC6=O)C7=O)CC5)CC4)cc3)CC2)c(F)c1C(F)(F)F (centres undefined)", "h", 32),
    ("COc1cc(N2CCN(CC3CCN(c4ccc(C5CCN(c6ccc(C#N)c(C(F)(F)F)c6F)CC5)cc4)CC3)CC2)cc2c1C(=O)N(C1CCC(=O)NC1=O)C2 (centres undefined)", "h", 9),
]

====

Biological target: Protein cereblon/Androgen receptor (Homo sapiens, UniProt P10275+Q96SW2, L702H)
Sequence (P10275 whole entry L702H, stated change not applied): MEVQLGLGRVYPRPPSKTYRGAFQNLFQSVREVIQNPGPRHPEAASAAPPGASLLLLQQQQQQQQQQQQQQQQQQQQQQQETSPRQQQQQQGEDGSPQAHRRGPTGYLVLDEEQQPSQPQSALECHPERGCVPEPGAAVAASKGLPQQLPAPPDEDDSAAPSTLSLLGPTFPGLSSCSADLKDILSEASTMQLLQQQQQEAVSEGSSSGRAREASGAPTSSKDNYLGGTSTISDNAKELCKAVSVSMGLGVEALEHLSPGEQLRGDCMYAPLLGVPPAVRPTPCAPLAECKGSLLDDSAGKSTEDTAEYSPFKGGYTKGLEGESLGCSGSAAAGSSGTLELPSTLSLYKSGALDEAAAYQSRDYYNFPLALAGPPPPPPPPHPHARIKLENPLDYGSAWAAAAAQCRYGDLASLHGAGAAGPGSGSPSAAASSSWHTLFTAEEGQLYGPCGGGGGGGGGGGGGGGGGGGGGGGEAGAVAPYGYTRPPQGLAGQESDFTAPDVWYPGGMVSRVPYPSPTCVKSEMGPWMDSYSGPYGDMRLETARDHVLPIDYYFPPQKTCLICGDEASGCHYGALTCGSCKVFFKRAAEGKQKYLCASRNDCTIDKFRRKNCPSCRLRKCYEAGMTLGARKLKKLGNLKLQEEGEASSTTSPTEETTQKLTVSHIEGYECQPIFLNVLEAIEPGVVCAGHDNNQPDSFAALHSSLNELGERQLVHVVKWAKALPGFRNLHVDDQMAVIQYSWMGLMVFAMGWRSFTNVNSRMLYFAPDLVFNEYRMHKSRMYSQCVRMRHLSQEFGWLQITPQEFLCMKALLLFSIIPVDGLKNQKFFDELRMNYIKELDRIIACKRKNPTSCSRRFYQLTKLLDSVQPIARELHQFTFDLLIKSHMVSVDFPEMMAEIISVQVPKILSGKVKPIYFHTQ
Sequence (Q96SW2 whole entry, stated change not applied): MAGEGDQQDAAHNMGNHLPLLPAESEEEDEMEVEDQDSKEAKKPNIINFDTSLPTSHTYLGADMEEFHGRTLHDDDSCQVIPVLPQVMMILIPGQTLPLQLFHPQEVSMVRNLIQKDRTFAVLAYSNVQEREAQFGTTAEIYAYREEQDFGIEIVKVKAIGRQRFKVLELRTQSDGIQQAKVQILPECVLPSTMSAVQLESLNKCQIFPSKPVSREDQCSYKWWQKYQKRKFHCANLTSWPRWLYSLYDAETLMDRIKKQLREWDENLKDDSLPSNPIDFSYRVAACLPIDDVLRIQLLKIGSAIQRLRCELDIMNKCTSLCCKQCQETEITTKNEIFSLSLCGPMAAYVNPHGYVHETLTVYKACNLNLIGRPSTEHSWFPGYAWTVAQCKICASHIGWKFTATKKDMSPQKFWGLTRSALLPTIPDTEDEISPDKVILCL
Test: PROTAC activity at CRBN/AR L702H mutant (unknown origin) expressed in human LNCaP cells assessed as protein degradation measured after 24 hrs incubation by imaging IF assay
Type: cell-based
Measurement label: log10(DC50) (log10 of the value in nM)

# Molecule, log10(DC50)
data = [
    ("N#Cc1ccc(N2CCC(c3ccc(N4CCC(CN5CCN(c6ccc7c(c6)CN(C6CCC(=O)NC6=O)C7=O)CC5)CC4)cc3)CC2)c(Cl)c1C(F)(F)F (configuration not stated)", 2.16),
    ("COc1cc(N2CCN(CC3CCN(c4cc(F)c(C5CCN(c6ccc(C#N)c(C(F)(F)F)c6F)CC5)c(F)c4)CC3)CC2)cc2c1C(=O)N(C1CCC(=O)NC1=O)C2 (configuration not stated)", 2.80),
    ("COc1cc(N2CCN(CC3CCN(c4ccc(C5CCN(c6ccc(C#N)c(C(F)(F)F)c6F)CC5)cc4)CC3)CC2)cc2c1C(=O)N(C1CCC(=O)NC1=O)C2 (configuration not stated)", 1.96),
    ("N#Cc1ccc(N2CCC(c3ccc(N4CCC(CN5CCN(c6ccc7c(c6)C(=O)N(C6CCC(=O)NC6=O)C7=O)CC5)CC4)cc3)CC2)c(F)c1C(F)(F)F (configuration not stated)", 3.12),
    ("N#Cc1ccc(N2CCC(c3ccc(N4CCC(CN5CCN(c6ccc7c(c6)CN(C6CCC(=O)NC6=O)C7=O)CC5)CC4)cc3)CC2)c(F)c1C(F)(F)F (configuration not stated)", 1.89),
    ("N#Cc1ccc(N2CCC(c3ccc(N4CCC(CN5CCN(c6cc7c(cc6F)C(=O)N(C6CCC(=O)NC6=O)C7=O)CC5)CC4)cc3)CC2)c(F)c1C(F)(F)F (configuration not stated)", 3.00),
    ("COc1cc(N2CCN(CC3CCN(c4ccc(C5CCN(c6ccc(C#N)c(C(F)(F)F)c6F)CC5)c(F)c4)CC3)CC2)cc2c1C(=O)N(C1CCC(=O)NC1=O)C2 (configuration not stated)", 2.67),
    ("N#Cc1ccc(N2CCC(c3ccc(OCCCCN4CCN(c5ccc6c(c5)CN(C5CCC(=O)NC5=O)C6=O)CC4)cc3)CC2)c(F)c1C(F)(F)F (configuration not stated)", 2.03),
]

====

Target: Protein cereblon/Androgen receptor (Homo sapiens, UniProt P10275+Q96SW2)
Test: PROTAC activity at AR/CRBN in human LNCaP cells assessed as protein degradation measured after 24 hrs incubation by imaging IF assay
Assay type: cell-based
Sequence (P10275 whole entry, one chain of several): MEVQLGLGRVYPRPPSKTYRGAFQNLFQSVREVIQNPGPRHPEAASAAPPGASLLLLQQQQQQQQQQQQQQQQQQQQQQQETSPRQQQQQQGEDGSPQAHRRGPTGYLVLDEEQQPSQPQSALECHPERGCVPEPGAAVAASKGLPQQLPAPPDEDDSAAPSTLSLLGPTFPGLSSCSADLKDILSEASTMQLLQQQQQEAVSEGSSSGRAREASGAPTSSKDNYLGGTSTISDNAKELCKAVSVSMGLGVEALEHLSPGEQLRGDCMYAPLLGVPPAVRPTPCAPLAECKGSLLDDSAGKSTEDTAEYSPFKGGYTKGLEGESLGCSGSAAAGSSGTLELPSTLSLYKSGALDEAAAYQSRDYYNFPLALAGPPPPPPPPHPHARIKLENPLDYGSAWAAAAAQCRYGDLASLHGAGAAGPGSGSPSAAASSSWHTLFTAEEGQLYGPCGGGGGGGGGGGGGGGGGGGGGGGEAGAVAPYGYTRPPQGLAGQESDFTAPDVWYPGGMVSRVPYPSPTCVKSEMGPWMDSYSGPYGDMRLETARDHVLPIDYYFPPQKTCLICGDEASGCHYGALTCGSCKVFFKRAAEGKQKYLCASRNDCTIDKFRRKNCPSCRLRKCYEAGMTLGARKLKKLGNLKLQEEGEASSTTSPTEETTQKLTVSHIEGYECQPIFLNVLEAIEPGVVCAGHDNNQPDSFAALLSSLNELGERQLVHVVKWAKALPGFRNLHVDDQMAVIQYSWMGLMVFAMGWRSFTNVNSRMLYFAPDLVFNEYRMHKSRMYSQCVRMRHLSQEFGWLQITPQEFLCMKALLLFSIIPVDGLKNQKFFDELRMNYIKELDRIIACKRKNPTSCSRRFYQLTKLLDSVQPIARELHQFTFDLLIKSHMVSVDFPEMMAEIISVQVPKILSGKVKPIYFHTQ
# note: exactly 20 nM is not below, so it is False; use True for DC50 strictly under it

# Compound, Classification
measured = [
    ("Cc1c(N2CCC(c3ccc(N4CCC(CN5CCN(c6ccc7c(c6)CN(C6CCC(=O)NC6=O)C7=O)CC5)CC4)cc3)CC2)ccc(C#N)c1C(F)(F)F (stereo not drawn)", "False"),
    ("N#Cc1ccc(N2CCC(c3ccc(N4CCC(CN5CCN(c6ccc7c(c6)C(=O)N(C6CCC(=O)NC6=O)C7=O)CC5)CC4)cc3)CC2)c(F)c1C(F)(F)F (stereo not drawn)", "False"),
    ("N#Cc1ccc(N2CCC(c3ccc(OCCCCN4CCN(c5ccc6c(c5)CN(C5CCC(=O)NC5=O)C6=O)CC4)cc3)CC2)cc1C(F)(F)F (stereo not drawn)", "True"),
    ("N#Cc1ccc(N2CCC(c3ccc(OCCCN4CCN(c5ccc6c(c5)CN(C5CCC(=O)NC5=O)C6=O)CC4)cc3)CC2)cc1C(F)(F)F (stereo not drawn)", "True"),
    ("COc1cc(N2CCN(CC3CCN(c4cc(F)c(C5CCN(c6ccc(C#N)c(C(F)(F)F)c6F)CC5)c(F)c4)CC3)CC2)cc2c1C(=O)N(C1CCC(=O)NC1=O)C2 (stereo not drawn)", "True"),
    ("N#Cc1ccc(N2CCC(c3ccc(N4CCC(CN5CCN(c6cc7c(cc6F)C(=O)N(C6CCC(=O)NC6=O)C7)CC5)CC4)cc3)CC2)cc1C(F)(F)F (stereo not drawn)", "False"),
    ("N#Cc1ccc(N2CCC(c3ccc(OCCCCN4CCN(c5ccc6c(c5)CN(C5CCC(=O)NC5=O)C6=O)CC4)cc3)CC2)c(F)c1C(F)(F)F (stereo not drawn)", "True"),
    ("COc1cc(N2CCN(CC3CCN(c4ccc(C5CCN(c6ccc(C#N)c(C(F)(F)F)c6F)CC5)c(F)c4)CC3)CC2)cc2c1C(=O)N(C1CCC(=O)NC1=O)C2 (stereo not drawn)", "True"),
    ("COc1cc(N2CCN(CC3CCN(c4ccc(C5CCN(c6ccc(C#N)c(C(F)(F)F)c6F)CC5)cc4)CC3)CC2)cc2c1C(=O)N(C1CCC(=O)NC1=O)C2 (stereo not drawn)", "False"),
    ("N#Cc1ccc(N2CCC(c3ccc(N4CCC(CN5CCN(c6ccc7c(c6)CN(C6CCC(=O)NC6=O)C7=O)CC5)CC4)cc3)CC2)cc1C(F)(F)F (stereo not drawn)", "True"),
    ("N#Cc1ccc(N2CCC(c3ccc(N4CCC(CN5CCN(c6cc7c(cc6F)C(=O)N(C6CCC(=O)NC6=O)C7=O)CC5)CC4)cc3)CC2)c(F)c1C(F)(F)F (stereo not drawn)", "False"),
    ("N#Cc1ccc(N2CCC(c3ccc(OCCCCCN4CCN(c5ccc6c(c5)CN(C5CCC(=O)NC5=O)C6=O)CC4)cc3)CC2)cc1C(F)(F)F (stereo not drawn)", "True"),
    ("N#Cc1ccc(N2CCC(c3ccc(N4CCC(CN5CCN(c6ccc7c(c6)CN(C6CCC(=O)NC6=O)C7=O)CC5)CC4)cc3)CC2)c(F)c1C(F)(F)F (stereo not drawn)", "False"),
]

====

Target: Protein cereblon/Androgen receptor (Homo sapiens, UniProt P10275+Q96SW2)
Assay: PROTAC activity at AR/CRBN in human LNCaP cells assessed as maximal protein degradation measured after 24 hrs incubation by imaging IF assay relative to control
Type: cell-based
Sequence (P10275 whole entry, looked up, one chain of several): as the sequence (P10275 whole entry, one chain of several) above
Measurement label: Emax (%)

# Molecule, System name, Measurement label, Reading
data = [
    ("N#Cc1ccc(N2CCC(c3ccc(N4CCC(CN5CCN(c6ccc7c(c6)CN(C6CCC(=O)NC6=O)C7=O)CC5)CC4)cc3)CC2)cc1C(F)(F)F (stereo not drawn)", "Protein cereblon/Androgen receptor (Homo sapiens, UniProt P10275+Q96SW2)", "Emax", 85),
    ("COc1cc(N2CCN(CC3CCN(c4cc(F)c(C5CCN(c6ccc(C#N)c(C(F)(F)F)c6F)CC5)c(F)c4)CC3)CC2)cc2c1C(=O)N(C1CCC(=O)NC1=O)C2 (stereo not drawn)", "Protein cereblon/Androgen receptor (Homo sapiens, UniProt P10275+Q96SW2)", "Emax", 100),
    ("COc1cc(N2CCN(CC3CCN(c4ccc(C5CCN(c6ccc(C#N)c(C(F)(F)F)c6)CC5)cc4)CC3)CC2)cc2c1C(=O)N(C1CCC(=O)NC1=O)C2 (stereo not drawn)", "Protein cereblon/Androgen receptor (Homo sapiens, UniProt P10275+Q96SW2)", "Emax", 92),
    ("COc1cc(N2CCN(CC3CCN(c4ccc(C5CCN(c6ccc(C#N)c(C(F)(F)F)c6F)CC5)cc4)CC3)CC2)cc2c1C(=O)N(C1CCC(=O)NC1=O)C2 (stereo not drawn)", "Protein cereblon/Androgen receptor (Homo sapiens, UniProt P10275+Q96SW2)", "Emax", 96),
    ("N#Cc1ccc(N2CCC(c3ccc(OCCCCN4CCN(c5ccc6c(c5)CN(C5CCC(=O)NC5=O)C6=O)CC4)cc3)CC2)c(F)c1C(F)(F)F (stereo not drawn)", "Protein cereblon/Androgen receptor (Homo sapiens, UniProt P10275+Q96SW2)", "Emax", 100),
    ("N#Cc1ccc(N2CCC(c3ccc(N4CCC(CN5CCN(c6cc7c(cc6F)C(=O)N(C6CCC(=O)NC6=O)C7)CC5)CC4)cc3)CC2)cc1C(F)(F)F (stereo not drawn)", "Protein cereblon/Androgen receptor (Homo sapiens, UniProt P10275+Q96SW2)", "Emax", 92),
    ("N#Cc1ccc(N2CCC(c3ccc(OCCCN4CCN(c5ccc6c(c5)CN(C5CCC(=O)NC5=O)C6=O)CC4)cc3)CC2)cc1C(F)(F)F (stereo not drawn)", "Protein cereblon/Androgen receptor (Homo sapiens, UniProt P10275+Q96SW2)", "Emax", 79),
    ("N#Cc1ccc(N2CCC(c3ccc(N4CCC(CN5CCN(c6ccc7c(c6)CN(C6CCC(=O)NC6=O)C7=O)CC5)CC4)cc3)CC2)c(Cl)c1C(F)(F)F (stereo not drawn)", "Protein cereblon/Androgen receptor (Homo sapiens, UniProt P10275+Q96SW2)", "Emax", 80),
    ("COc1cc(N2CCN(CC3CCN(c4ccc(C5CCN(c6ccc(C#N)c(C(F)(F)F)c6F)CC5)c(F)c4)CC3)CC2)cc2c1C(=O)N(C1CCC(=O)NC1=O)C2 (stereo not drawn)", "Protein cereblon/Androgen receptor (Homo sapiens, UniProt P10275+Q96SW2)", "Emax", 100),
    ("Cc1c(N2CCC(c3ccc(N4CCC(CN5CCN(c6ccc7c(c6)CN(C6CCC(=O)NC6=O)C7=O)CC5)CC4)cc3)CC2)ccc(C#N)c1C(F)(F)F (stereo not drawn)", "Protein cereblon/Androgen receptor (Homo sapiens, UniProt P10275+Q96SW2)", "Emax", 70),
    ("N#Cc1ccc(N2CCC(c3ccc(N4CCC(CN5CCN(c6ccc7c(c6)CN(C6CCC(=O)NC6=O)C7=O)CC5)CC4)cc3)CC2)c(F)c1C(F)(F)F (stereo not drawn)", "Protein cereblon/Androgen receptor (Homo sapiens, UniProt P10275+Q96SW2)", "Emax", 95),
    ("N#Cc1ccc(N2CCC(c3ccc(OCCCCN4CCN(c5ccc6c(c5)C(=O)N(C5CCC(=O)NC5=O)C6=O)CC4)cc3)CC2)cc1C(F)(F)F (stereo not drawn)", "Protein cereblon/Androgen receptor (Homo sapiens, UniProt P10275+Q96SW2)", "Emax", 100),
    ("N#Cc1ccc(N2CCC(c3ccc(OCCCCCN4CCN(c5ccc6c(c5)CN(C5CCC(=O)NC5=O)C6=O)CC4)cc3)CC2)cc1C(F)(F)F (stereo not drawn)", "Protein cereblon/Androgen receptor (Homo sapiens, UniProt P10275+Q96SW2)", "Emax", 94),
]
